target-system: Aurora-A (Homo sapiens, UniProt O14965)
Sequence (O14965 1-403): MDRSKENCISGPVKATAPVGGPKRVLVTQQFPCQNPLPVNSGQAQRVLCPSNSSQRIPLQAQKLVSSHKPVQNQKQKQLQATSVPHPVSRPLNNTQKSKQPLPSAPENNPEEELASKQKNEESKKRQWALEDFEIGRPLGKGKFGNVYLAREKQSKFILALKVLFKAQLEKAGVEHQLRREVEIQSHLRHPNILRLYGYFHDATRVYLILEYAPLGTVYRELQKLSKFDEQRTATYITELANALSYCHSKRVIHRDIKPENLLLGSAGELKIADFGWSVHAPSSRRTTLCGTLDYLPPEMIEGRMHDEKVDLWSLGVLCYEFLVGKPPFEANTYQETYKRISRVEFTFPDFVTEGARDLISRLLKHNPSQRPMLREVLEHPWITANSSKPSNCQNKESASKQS
endpoint: pIC50
Keep it numeric: pIC50 is minus log10 of the concentration in mol/L.

Sample `Cc1cn(-c2cc(C(=O)Nc3cccc(Nc4ccc5c(c4)NC(=O)/C5=C/c4ccc[nH]4)c3)cc(C(F)(F)F)c2)cn1` ; pIC50 observed: 7.82
